System: MOLT-4
measurementDescription: NCI tumour cell line growth inhibition, 48 h
Calls of active or inactive are those of the source. Cut-off read from the data, not from the text of the source: active = GI50 up to about 1.1 µM and inactive = higher.
Outcomes you can answer with include only these: active, inactive

Prompt: Look up the recorded call for Cc1c2cc[n+](Cc3ccc(I)cc3)cc2c(C)c2c1[nH]c1ccccc12 in this test.
Completion: active

Prompt: In this assay, the call recorded for CSc1ncnc2c1ncn2CCC(=O)O was what?
Completion: inactive

Prompt: Which outcome was assigned to c1ccc(-c2cn3c(nc4ccccc43)c(-c3ccccc3)n2)cc1 in this test?
Completion: inactive

Prompt: // param item: COc1ccc(/N=N/C(=O)NC(Cc2ccccc2)C(=O)O)cc1 (stereo unspecified) ; yields the recorded call
Completion: inactive

Prompt: Could you please tell me the result logged for O=C(CCc1ccccc1)On1c(-c2ccccc2)nc2ccccc2c1=S in this assay?
Completion: active

Prompt: Please state the recorded outcome for this compound: COc1cc(C2(c3ncc[nH]3)SSSCC2O)ccc1O (stereo unspecified)
Completion: inactive

====

Kindly state GI50 for each of the entries shown.
System: U-251
measurementDescription: NCI tumour cell line growth inhibition, 48 h
Calls of active or inactive are those of the source. Cut-off read from the data, not from the text of the source: active = GI50 up to about 1.1 µM and inactive = higher.

Prompt: For the compound O=C(O)CCc1coc2ccc(O)cc12 , what GI50 is on record?
Completion: > 100 µM (inactive)

Prompt: Reported GI50, compound CC(C)(C)OC(=O)N1CCC(C(=O)O)CC1 : ____
Completion: > 100 µM (inactive)

Prompt: # get_value(readout='GI50', item= Nc1c(O)c(C(=O)O)cc2ccccc12 )
Completion: 30.3 µM (inactive)

Prompt: I have this compound here, CN1C(=O)C(CCO)(C(C)(C)C)c2ccccc21 (stereo unspecified) , and I need its recorded GI50.
Completion: > 100 µM (inactive)

Prompt: # query: GI50 of entry C=CCN(CCNS(=O)(=O)c1ccc(C)cc1)S(=O)(=O)c1ccc(C)cc1
Completion: > 49.5 µM (inactive)

Prompt: Please report the recorded GI50 for COc1cc(C(=O)N(C(=O)N2CCCCC2)c2ccccc2)cc(OC)c1OC .
Completion: > 100 µM (inactive)

Prompt: Query: GI50; subject: CCCCC(C(=O)CCC(=O)Nc1ccc(Cl)c(Cl)c1)C(=O)C(C)C (stereo unspecified)
Completion: > 100 µM (inactive)

Prompt: For the compound CC(=O)Oc1ccc2c(C)cc(=O)oc2c1OC(C)=O , what GI50 is on record?
Completion: 35.2 µM (inactive)

Prompt: Return reported GI50; argument: C[n+]1c(Cl)cn2c3nc4ccccc4nc3c([O-])c(C#N)c21
Completion: > 100 µM (inactive)

Prompt: What measured GI50 goes with CC(C)CCC(=O)c1ccoc1 [PERILLAKETONE] ?
Completion: > 100 µM (inactive)

Prompt: For the compound CCc1cc(Cc2ccc(C)c(NC(=O)C(=O)C3C(=O)NC(=O)NC3=O)c2CC)cc(C)c1NC(=O)C(=O)C1C(=O)NC(=O)NC1=O , what GI50 is on record?
Completion: > 100 µM (inactive)

====

I'd be grateful if you could share measured GI50 for these entries.
System: SK-MEL-28
measurementDescription: NCI tumour cell line growth inhibition, 48 h
Active and inactive are the calls of the source. Rule as the data show it: active = GI50 up to about 1.1 µM and inactive = higher.

Prompt: Fill blank: measured GI50 of the compound COc1ccc(OC)c(C(Cc2ccnc3ccccc23)Cc2ccnc3ccccc23)c1 is ____.
Completion: > 10 µM (inactive)

Prompt: I am curious: what GI50 value has been reported for O=c1[nH]cc(OCC(F)(F)F)c(=O)[nH]1 ?
Completion: > 100 µM (inactive)

Prompt: // GI50 lookup, key: COc1ccc(/N=N/C(=O)NC(Cc2ccccc2)C(=O)O)cc1 (centres undefined)
Completion: > 100 µM (inactive)

Prompt: Name the recorded GI50 for CC(=O)Nc1ccc(C(=O)NN2C(=O)C(Cl)C2c2ccc(O)cc2)cc1 (centres undefined) .
Completion: > 100 µM (inactive)

Prompt: I have this compound here, CCC12CCCN3CCc4c(n(c5ccccc45)C(O)(C(=O)OC)C1)C32 (centres undefined) , and I need its recorded GI50.
Completion: > 100 µM (inactive)

Prompt: Look up GI50 for this compound: COC(=O)C(Cc1ccc(Oc2cc(CC(NC(=O)c3ccccc3)C(=O)OC)ccc2OC)cc1)NC(=O)c1ccccc1 (centres undefined)
Completion: 8.49 µM (inactive)

Prompt: // returns reported GI50 for input O=C(CCC(=O)c1ccsc1)c1ccsc1
Completion: > 100 µM (inactive)

Prompt: Sample CC(C)C12C=CC(C)(CC1)n1c(=O)c3cc4ccccc4cc3c(=O)n12 (centres undefined) — what was its GI50?
Completion: > 100 µM (inactive)

Prompt: Which GI50 value is on record for CCOC(=O)C1=C(C)C2C=C(c3cccs3)CC(c3ccc(Cl)cc3)=C2OC1=O (centres undefined) ?
Completion: 94.4 µM (inactive)

Prompt: If you can, please state the reported GI50 value of Cc1ccc(Nc2ccc(Nc3ccc(C)cc3S(=O)(=O)O)c3c2C(=O)c2ccccc2C3=O)c(S(=O)(=O)O)c1 .
Completion: > 100 µM (inactive)

Prompt: GET /values?readout=GI50&item= COc1ccc(/C=C2\C(=O)N(C(=O)c3ccc(NC(C)=O)cc3)N=C2C)cc1OC
Completion: > 100 µM (inactive)

Prompt: Which value of GI50 has been reported for COc1cc2ccc1NC(=O)N1CCN(CC1)C(=O)Nc1ccc(cc1OC)-c1ccc(c(OC)c1)NC(=O)N1CCN(CC1)C(=O)Nc1ccc-2cc1OC in the records?
Completion: > 100 µM (inactive)

Prompt: Request the reported GI50 associated with CCCCCCCCCC/C=C/CC(=O)SCCNC(=O)CCNC(=O)[C@@H](O)C(C)(C)COP(=O)(O)OP(=O)(O)OCC1OC(n2cnc3c(N)ncnc32)C(O)C1OP(=O)(O)O (some centres undefined)
Completion: > 10 µM (inactive)

Prompt: Look at this compound and give its reported GI50. CC[C@@H]1CSC(/C=C/C2OC3OC(C)(C)OC3C3OC(C)(C)OC23)=N1 (some centres undefined)
Completion: 11.9 µM (inactive)

Prompt: Which GI50 is reported for this compound? Cc1cccc2nc3c(C(=O)NCCN(C)C)cccc3cc12
Completion: 1.85 µM (inactive)

Prompt: Query: GI50; subject: COCOc1cc(OC)ccc1C/C(=N/O)C(=O)OC
Completion: > 100 µM (inactive)

Prompt: Query: GI50; subject: O=C(CC(=O)n1nc(-c2ccccc2)c(/N=N/c2ccccc2C(=O)O)c1-c1ccccc1)Nc1ccc(Cl)cc1
Completion: 52.8 µM (inactive)

Prompt: Recorded GI50 for COc1ccc(C(=O)Cn2c(C(C)=O)nc3ccccc32)cc1 , please?
Completion: > 46.7 µM (inactive)

Prompt: # query: GI50 of entry O=C(CCc1ccccc1)On1c(-c2ccccc2)nc2ccccc2c1=S
Completion: 16.1 µM (inactive)

====

Test system: NCI-H226
measurementDescription: NCI tumour cell line growth inhibition, 48 h
The source made the active and inactive calls. Cut-off read from the data, not from the text of the source: active = GI50 up to about 1.1 µM and inactive = higher.
reportedEndpoint: GI50

Prompt: GI50 lookup needed for O=C1C(NS(=O)(=O)c2ccccc2)=C(n2cnc3ccccc32)C(=O)c2ccccc21 , thanks.
Completion: > 100 µM (inactive)

Prompt: Any idea what its GI50 is? The compound is CN(C)CCNC(=O)c1cccc2[nH]c(-c3ccc(Cl)cc3)nc12
Completion: 4.59 µM (inactive)

Prompt: May I ask what GI50 has been recorded for CCOC(=O)C1=C(C)C2C=C(c3cccs3)CC(c3ccc(Cl)cc3)=C2OC1=O (stereo not given) ?
Completion: 21 µM (inactive)

Prompt: Tell me the measured GI50 of COc1ccc2nc(NC(=O)C(=O)C(C(=O)c3ccccc3-c3ccccc3)C3OC(=O)c4ccccc43)sc2c1 (stereo not given) , please.
Completion: 5.27 µM (inactive)

Prompt: Name the recorded GI50 for Nc1ncnc2c1N=C(c1ccccc1)CC(c1ccccc1)N2 (stereo not given) .
Completion: > 100 µM (inactive)

Prompt: Can you look up the measured GI50 of CCOC(=O)CC1(O)CCCCC1(Sc1ccc(C)cc1)Sc1ccc(C)cc1 (stereo not given) for me?
Completion: 34.4 µM (inactive)

Prompt: Query: GI50; subject: O=C1c2ccccc2C(=O)N1C(=S)c1ccccc1
Completion: > 100 µM (inactive)

Prompt: Value lookup for GI50; key = Nc1c(Br)cc(-c2nc3ccccc3s2)cc1Br
Completion: > 100 µM (inactive)

Prompt: // GI50 lookup, key: O=C1C2=C(C3=NCCc4c[nH]c1c43)c1c(Br)cc(Br)cc1CCN2
Completion: 4.41 µM (inactive)

Prompt: What measured GI50 goes with O=C(NC12CC3CC(CC(C3)C1)C2)C(=O)c1c[nH]c2ccc([N+](=O)[O-])cc12 ?
Completion: 23.8 µM (inactive)

====

Task for the reader: assign each of the following molecules its reported GI50.
Tested on: HT-29
measurementDescription: NCI tumour cell line growth inhibition, 48 h
Activity calls are given as the source filed them. No stated cut-off is given here; in the data, active = GI50 up to about 1.1 µM and inactive = higher.

Prompt: What GI50 value was documented for this molecule, C=C1[C@@H]2CCC3[C@]4(C)C(CC[C@@]5(C)C(=O)O[C@H](O)[C@@H]45)[C@H](O)[C@]3(C2)[C@H]1OC1OC(CO)C(O)C(O)C1O (some centres not stated) ?
Completion: > 50 µM (inactive)

Prompt: Which measured GI50 value corresponds to NCCC1(N)CCNCC1 ?
Completion: > 100 µM (inactive)

Prompt: Item under review: CCCCCCCCCC/C=C/CC(=O)SCCNC(=O)CCNC(=O)[C@@H](O)C(C)(C)COP(=O)(O)OP(=O)(O)OCC1OC(n2cnc3c(N)ncnc32)C(O)C1OP(=O)(O)O (some centres not stated) . Reported GI50?
Completion: > 10 µM (inactive)

Prompt: Return reported GI50; argument: CCOC(=O)C1(Cc2ccccc2)CCCCCN1 (configuration not stated)
Completion: > 100 µM (inactive)

Prompt: Suppose we examine the molecule c1ccc(-c2cn3c(nc4ccccc43)c(-c3ccccc3)n2)cc1 ; what GI50 value has been reported?
Completion: 71 µM (inactive)

Prompt: // lookup GI50 for C=CCn1c(N)c(C#N)c(C#N)c1-c1ccccc1
Completion: > 100 µM (inactive)

Prompt: For CC(=O)OCc1cc(OC(C)=O)c2cc3c(OC(C)=O)cccc3c(OC(C)=O)c2c1 , what is its reported GI50?
Completion: 14.8 µM (inactive)

Prompt: Data request, read-out GI50, for Nc1c(O)c(C(=O)O)cc2ccccc12
Completion: 17 µM (inactive)

Prompt: Consider the molecule COc1cc2nc(-c3cccs3)nc(Nc3cccc(Cl)c3)c2cc1OC and give its measured GI50.
Completion: > 100 µM (inactive)

Prompt: Recorded GI50 for CC1(C)COC(/C=C/C2=NC(C)(C)CO2)=N1 , please?
Completion: 21.2 µM (inactive)

Prompt: Recorded GI50 for CC1(C)CC(=O)C(CC2C(=O)c3ccccc3C2=O)C(=O)C1 , please?
Completion: > 100 µM (inactive)

Prompt: I am curious: what GI50 value has been reported for Cc1cnc(NCCCN(C)C)c2c1[nH]c1ccc3cc(O)ccc3c12 ?
Completion: 0.362 µM (active)

Reference source for all entries: ChEMBL document CHEMBL1201862
